B1: ZNF263 (parent)
chain: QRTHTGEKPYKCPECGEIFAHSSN

variants of: B1; assay: protein stability index of a GFP-peptide fusion (GPS, HEK-293T) (PSI 1-6); higher = more stable; details: c terminus: a fixed tail appended;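 further: lentivirally expressed fusions sorted by FACS into six bins by GFP to DsRed ratio, PSI derived from sequencing read proportions per bin multiplied by bin number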
Kindly return rule met if reported protein stability index is no lower than 3; return rule not met if it is lower.

[[record]]
variant_name = "C12N"
classification = "rule met"

[[record]]
variant_name = "G6F"
classification = "rule not met"

[[record]]
variant_name = "R2G"
classification = "rule met"

[[record]]
variant_name = "E14G"
classification = "rule met"

[[record]]
variant_name = "A20Q"
classification = "rule met"

[[record]]
variant_name = "G16V"
classification = "rule met"

[[record]]
variant_name = "T5N"
classification = "rule met"

[[record]]
variant_name = "E17K"
classification = "rule met"

[[record]]
variant_name = "F19M"
classification = "rule met"

[[record]]
variant_name = "Q1E"
classification = "rule met"

[[record]]
variant_name = "G16I"
classification = "rule not met"

[[record]]
variant_name = "C15N"
classification = "rule met"

[[record]]
variant_name = "H4G"
classification = "rule met"

[[record]]
variant_name = "H21N"
classification = "rule not met"

[[record]]
variant_name = "P13I"
classification = "rule met"

[[record]]
variant_name = "I18C"
classification = "rule met"

[[record]]
variant_name = "E17D"
classification = "rule met"

[[record]]
variant_name = "C12K"
classification = "rule met"

[[record]]
variant_name = "F19H"
classification = "rule met"

[[record]]
variant_name = "N24R"
classification = "rule not met"

[[record]]
variant_name = "N24P"
classification = "rule not met"

[[record]]
variant_name = "S22Q"
classification = "rule not met"

[[record]]
variant_name = "Y10E"
classification = "rule met"

[[record]]
variant_name = "C15S"
classification = "rule met"

[[record]]
variant_name = "P9C"
classification = "rule met"

